# protocol: NF-kB promoter reporter activators, neuronal cells, dose response, cell-based, SH-SY5Y, luciferase (AID 1241)
# assay_context: fold induction
Items are presented alongside their recorded pEC50.
Scale: pEC50 equals -log10([C]), with [C] in mol/L.

{"molecule": "COc1cc2c(cc1NC(=O)C1CCCO1)oc1ccccc12 (configuration not stated)", "pEC50": 5.24}

Item under review: Cc1nn(C)cc1/C=C/C(=O)c1ccccc1 . Reported pEC50? 5.56

Would you kindly share the measured pEC50 for CCN(CC)c1ccc(NC(=O)c2ccccc2F)cc1 ? 5.13

Bench note: what pEC50 did O=C(Nc1ccc2c(c1)OCO2)c1ccc(Cl)s1 show? 5.74

Which pEC50 is reported for this molecule? O=C(CC(Nc1ccc(F)cc1)C(=O)O)c1ccccc1 (configuration not stated) 5.82

I am curious: what pEC50 value has been reported for CCCCn1cnc2sc(-c3ccccc3)cc2c1=O ? 4.92

Which pEC50 reading was recorded for the molecule CCCCc1ccc(-c2ccc(Br)cc2)nc1 ? 4.79

Request the reported pEC50 associated with COc1ccc(NC(=O)C2=Cc3ccccc3OC2)cc1 6.10

Reported pEC50, molecule O=C(O)c1cccc(N/N=C/c2cccs2)c1 : ____ 5.88

Look at this molecule and give its reported pEC50. CN1CCN(Cc2cc(COCc3ccccc3)c3cccnc3c2O)CC1 4.96

Consider the molecule shown here: c1ccc(-c2ncc(-c3ccn[nH]3)s2)cc1 What is its recorded pEC50? 5.63

Item under review: COc1ccc2c(c1OC)C(=O)OC2Nc1nc(-c2cc3ccccc3oc2=O)cs1 (configuration not stated) . Reported pEC50? 5.68

---

# protocol: NF-kB promoter reporter activators, neuronal cells, dose response, cell-based, SH-SY5Y, luciferase (AID 1241)
# assay_context: fold induction
assay_endpoint: pEC50
Interpret pEC50 as the negative base-10 log of the concentration measured in mol/L.

Below are worked cases with known answers.
{"compound": "CSc1ccc(/C=N/Nc2cccc(C(=O)O)c2)cc1", "pEC50": 5.46}
{"compound": "CNc1nc(-c2ccc3c(c2)CCN3C(=O)c2ccccc2F)cs1", "pEC50": 5.57}
{"compound": "O=C(O)c1ccc2nc(-c3ccccc3)sc2c1", "pEC50": 5.74}
{"compound": "O=C(Nc1ccc2c(c1)OCCO2)NC1CCCCC1", "pEC50": 4.74}

What value of measured pEC50 is listed for Cc1ccc(NC(=O)c2noc3c2CCC3)cc1C ? 5.51

For Nc1ccc(-c2nc3ccc([N+](=O)[O-])cc3[nH]2)cc1 , what is its reported pEC50? 5.78

What value of pEC50 has been recorded for this entry: CCOc1ccc2cc(C#N)c(SCC(=O)OC)nc2c1 4.84

Entry under review: Cc1cccc(Nc2nc(-c3ccccn3)cs2)n1 . Reported pEC50? 5.92

Find the recorded pEC50 belonging to CN(c1ccc(O)cc1)c1nc(-c2cccs2)cs1 and report it. 5.41

pEC50 lookup needed for Cc1cc(C)n2cc(COc3ccc4ccccc4c3)nc2n1 , thanks. 5.74

Could you tell me which pEC50 is on file for CC(C)c1oc(=O)cc2c1[C@@H](O)[C@H]1OC(=O)[C@@]3(C)C[C@@H](O)[C@@H](O)[C@@]2(C)C13 (some centres not stated) ? 5.35

What measured pEC50 goes with CCCCCc1ccc(-c2ccc(C(=O)O)cc2)nc1 ? 5.85

The origin of these recorded values is PubChem BioAssay AID1241.
